Biological target: T1, human six-transmembrane epithelial antigen of prostate 2 (STEAP2) (human, UniProt Q8NFT2 1-490)
T1 sequence: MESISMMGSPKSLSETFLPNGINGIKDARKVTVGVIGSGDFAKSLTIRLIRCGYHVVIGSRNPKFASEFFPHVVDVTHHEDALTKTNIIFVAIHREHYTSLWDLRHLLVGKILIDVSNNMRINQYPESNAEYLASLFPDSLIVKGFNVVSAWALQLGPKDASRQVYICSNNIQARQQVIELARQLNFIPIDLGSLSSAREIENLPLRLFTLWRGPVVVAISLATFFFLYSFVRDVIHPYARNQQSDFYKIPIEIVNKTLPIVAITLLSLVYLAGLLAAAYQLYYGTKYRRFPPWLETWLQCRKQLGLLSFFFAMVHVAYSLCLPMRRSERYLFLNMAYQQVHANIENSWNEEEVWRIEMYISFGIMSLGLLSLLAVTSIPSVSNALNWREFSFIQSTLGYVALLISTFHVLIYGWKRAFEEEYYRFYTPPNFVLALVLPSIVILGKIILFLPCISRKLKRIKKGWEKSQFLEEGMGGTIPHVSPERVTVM
Experiment: cell-based or functional assay
criterion met means recorded C4-2 cells depletion EC50 is 4 pM or above; criterion not met means it is below 4 pM.

Say whether BSSTEAP2/CD3-001 (bispecific antibody, IgG4, V domains shown) VH 1: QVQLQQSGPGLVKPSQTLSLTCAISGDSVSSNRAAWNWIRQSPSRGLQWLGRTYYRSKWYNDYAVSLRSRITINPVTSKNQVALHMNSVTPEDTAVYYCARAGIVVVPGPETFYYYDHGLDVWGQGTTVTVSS VH 2: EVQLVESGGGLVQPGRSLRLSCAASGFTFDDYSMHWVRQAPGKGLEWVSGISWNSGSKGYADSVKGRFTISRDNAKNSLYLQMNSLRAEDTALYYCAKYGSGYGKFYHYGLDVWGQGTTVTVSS VL: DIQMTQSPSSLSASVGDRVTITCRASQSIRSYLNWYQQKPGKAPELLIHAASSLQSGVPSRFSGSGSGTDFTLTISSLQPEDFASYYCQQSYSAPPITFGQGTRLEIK shows C4-2 cells depletion EC50 of 4 pM or more.
criterion met

Say whether BSSTEAP2/CD3-004 (bispecific antibody, IgG4, V domains shown) VH 1: QVQLVESGGGVVQPGRSLRLSCVASGFTISSYGMNWVRQAPGKGLEWVAVISYDGGNKYSVDSVKGRFTISRDNSKNTLYLQMNSLRAEDSAVYYCARGRYFDLWGRGTLVTVSS VH 2: EVQLVESGGGLVQPGRSLRLSCAASGFTFADYTMHWVRQGPGTGLEWVSDIGWSGGSLGYADSVKGRFTISRDNAKNSLYLEMNNLRPEDTALYYCVKDKSGYGKFQYGLDVWGQGTTVTVSS VL: DIQMTQSPSTLSASVGDRVTITCRASQSISSWLAWYQQKPGRAPNLLISKASSLKSGVPSRFSGSGSGTEFTLTVSSLQPDDFATYYCQQYYSYSYTFGQGTKLEIK shows C4-2 cells depletion EC50 of 4 pM or more.
criterion not met

Say whether BSSTEAP2/CD3-009 (bispecific antibody, IgG4, V domains shown) VH 1: QVQLQQSGPGLVKPSQTLSLTCVISGDSVSTNSAAWNWIRQSPSRGLEWLGRTYYRSKWYNDYAVSVRSRITINPVTSKNQVALHLNSVTPEDTAVYYCARAGIVVVPGPETYYYYYHGLDVWGQGTTVTVSS VH 2: QVQLVESGGGLVHPGRSLRLSCAASGFKFDDYTMHWVRQAPGKGLEWVSDISWNSGSKGYADSVKGRFTISRDNAKDSLYLQMDSLRAADTAFYYCAKDKSGYGHFYYYAMDVWGQGTTVTVSS VL: DIQMTQSPSSLSASVGDRVTITCRASQNIRSYLNWYQQKPGKAPKLLIHVASSLQSGVPSRFSGSGSGTDFTLTISSLQPEDFATYYCQQSYSTPPITFGHGTRLEIK shows C4-2 cells depletion EC50 of 4 pM or more.
criterion not met

Say whether BSSTEAP2/CD3-007 (bispecific antibody, V domains shown) VH 1: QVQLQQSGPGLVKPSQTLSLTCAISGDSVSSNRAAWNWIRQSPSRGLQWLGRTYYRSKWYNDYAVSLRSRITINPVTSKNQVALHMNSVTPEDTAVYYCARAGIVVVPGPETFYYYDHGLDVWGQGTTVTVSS VH 2: EVQLVESGGGLVQPGRSLRLSCAASGFTFADYTMHWVRQAPGKGLEWVSDISWNSGSIAYADSVKGRFTISRDNAKNSLYLQMNSLRTEDTAFYYCAKDSRGYGHYKYLGLDVWGQGTTVTVSS VL: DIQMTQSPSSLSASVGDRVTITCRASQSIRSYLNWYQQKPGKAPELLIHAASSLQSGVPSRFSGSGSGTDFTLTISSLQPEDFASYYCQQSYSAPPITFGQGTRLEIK shows C4-2 cells depletion EC50 of 4 pM or more.
criterion met
